Biological target: human RORγ-LBD (Homo sapiens)
Construct: made in house; host or cells: E. coli (BL-21)
Sequence (P51449 262-518): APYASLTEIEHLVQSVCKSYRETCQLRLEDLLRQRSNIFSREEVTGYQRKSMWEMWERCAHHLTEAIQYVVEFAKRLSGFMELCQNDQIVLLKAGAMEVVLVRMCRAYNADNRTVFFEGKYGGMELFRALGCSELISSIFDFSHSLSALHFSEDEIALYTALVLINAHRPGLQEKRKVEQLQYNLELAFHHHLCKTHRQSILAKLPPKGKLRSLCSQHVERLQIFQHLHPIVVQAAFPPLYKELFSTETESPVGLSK
Assay: ROR gamma coactivator peptide recruitment Alphascreen assay (RORγ-LBD binding to GRIP1 coactivator peptide)
Format: biochemical
Settings: 5 nM human RORγ-LBD, 30 nM 7-β-hydroxycholesterol, 50 nM biotinylated GRIP1 coactivator peptide, overnight incubation at room temperature; read-out: result (pIC50, RORγ coactivator peptide recruitment Alphascreen assay) (converted)
Source text: Alphascreen™ is a bead-based amplified homogenous luminescent proximity assay that can be used for measuring the effect of compounds on protein-protein interactions. When biological interactions bring donor and acceptor beads into close proximity, reactive oxygen, generated upon laser excitation of the donor beads, initiates a luminescence/fluorescence cascade in the acceptor beads that leads to a highly amplified signal that can be measured as light in the 520-620 nm range. […]
Readout Kind: IC50 (nM)
Just the number in nM, nothing appended.

Recorded IC50, per entry:
Cc1cc(Cl)c(C(=O)CN(C(=O)c2cnn([C@H]3CC[C@](C)(C(=O)O)CC3)c2C(F)(F)F)[C@@H]2CCC23CCC3)c(Cl)c1; 9.55
Cc1[nH]c2ccccc2c1CCN(Cc1ccc(Cl)cc1)C(=O)c1cnn([C@H]2CC[C@H](C(=O)O)CC2)c1C(F)(F)F; 33.1
CC(C)(C)CN(CC(=O)c1c(Cl)cncc1Cl)C(=O)c1cnn([C@H]2CC[C@@H](CC(=O)O)CC2)c1C(F)(F)F; 74.1
CC(C)(C)CN(CC(=O)c1c(Cl)cncc1Cl)C(=O)c1cnn([C@H]2CC[C@](C)(C(=O)O)C[C@H]2F)c1C(F)(F)F; 4.57

Requested field: IC50. Item: C[C@@H]1C[C@@H](n2ncc(C(=O)N(CC(=O)c3c(Cl)cncc3Cl)CC3(F)CCCC3)c2C(F)(F)F)CC[C@@H]1C(=O)O
3.09

And for CC(C)(C)CN(CC(=O)c1c(Cl)cncc1Cl)C(=O)c1cnn([C@@H]2CC[C@]3(C(=O)O)CCC[C@@H]3C2)c1C(F)(F)F [Example 871] ?
5.01
